Quick list: apparent KD of K4 kissing-loop reporter per entry.
Test system: K4 kissing-loop RNA reporter;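 also: bound reporter read as fluorescence of individual clusters on recovered sequencing chips by microscopy, with normalized cluster intensities fitted with a binding model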
Assay: apparent KD of K4 kissing-loop reporter; higher = weaker reporter binding
Settings: Eterna round: R107; input ligand: none

Record Sequence: CCUUCUCUUGAUAGUGAUGUUAUCAAGGGCAAGGAUAUCAUCUUAAUGAGAAGGUGUCCUUGAUAACAUGGAGGUCUGAAACAGA [Omei KL FMN A Exc C v5]
apparent KD of K4 kissing-loop reporter [µM]: 0.229

Record Sequence: AGCGACUCUUCGGAGUCGCGGCUAAGGGAUACCAGUGAUGUUGGUCACCCUUGGCAGCCCAGAAGCCAAGCCACCAAAGGUGGCA [Omei KL Theo A Exc A v5]
apparent KD of K4 kissing-loop reporter [µM]: 0.111

Record Sequence: UCCUGCAAUCGACCACGAAAGUGGAUCGAUACCAGAGUCGAAAGACUCCCUUGGCAGCGAGUGAUGUUCGAAGCAGGUAAAUAAA [#SwitchBubble 22 #K4Late]
apparent KD of K4 kissing-loop reporter [µM]: 0.453

Record Sequence: UGAUAGGACAGAAGGAGCGGAAUGCUGUCCAAAAGGACAGCAAAUAUAACAGGAGUGAUGUUCCAGGUAGGUCGCUGUCCUAUCU [ArgBX 21 #SwitchBubble #StaticStem]
apparent KD of K4 kissing-loop reporter [µM]: 0.214

Record Sequence: UGGAGUUGACGAAAAGUCAACUCCUGAGAAGGAGCGGACGAAAGUCCAGGUAGGUCGCUCACUAGCAGUGAUGUUGCUACAUAAA [#OpenEnded 2]
apparent KD of K4 kissing-loop reporter [µM]: 0.219

Record Sequence: AAUGCAUAGUGAAGGAGCGCGUAUAGCAGUGAUGUUGCUUACUUAUUAUUAUAUUAAUUGACGCAGGUAGGUCGCACUUUGCAUA [JR_ExcArginiB_Sub022]
apparent KD of K4 kissing-loop reporter [µM]: 0.196

Record Sequence: AAUAUACAGGGAAGGAGCGCCGUCCAGUGAUGUUGGAGUUAAAUACCAGUGAUGUUGGUUAGGCAGGUAGGUCGCCCUAAAGUAU [Exclusion Arginine B Gf 2]
apparent KD of K4 kissing-loop reporter [µM]: 0.105

Record Sequence: GUUGAUCAUGGAAGGAGCGCCCAUUGUCGACACGAGUGAUGUUCGUGUCGUUGAUUACGAGGGCAGGUAGGUCGCCGUGUGCUUU [Rabele]
apparent KD of K4 kissing-loop reporter [µM]: 0.124

Record Sequence: AUUUAGACGAGUGAUGUUCGUGUUAUUACAGAGGAUAUGCGUAAAAGCAGAAGGCUGUAUUUAUAUUUGUUAUGUAAUUUUAAAA [JR_ExcFMNA_Sub006]
apparent KD of K4 kissing-loop reporter [µM]: 0.0859

Record Sequence: AAAACUAUCAGAAGGAGCGUGGAAUAUUCAUCUGUAUUUAAUACGAGUGAUGUUCGUAAUUCACAGGUAGGUCGCUGAUCAAUAA [whbob_Ex_Arginine_B_2th154]
apparent KD of K4 kissing-loop reporter [µM]: 0.306

Record Sequence: GUGCGCGCGGCGGCCGCCACUCGCAUGAGAGUGAUGUUCUCGGGACUGACGCAAGUCAGUCAUGUGAGGACCGGGCCGGGCUGCG [#2 Same State - Tryptophan B Attempt #12 (HarryS)]
apparent KD of K4 kissing-loop reporter [µM]: 0.447
